Experiment: MDA-MB-436 breast carcinoma cell growth inhibition, synergistic combos for chromothripsis tumors, BGB or cisplatin combos (AID 1671458);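 further: cells exposed for 96 hours; 0% = vehicle DMSO and 100% = killing by high DMSO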
Conditions: MDA-MB-436 breast carcinoma growth inhibition, drug combinations; measured here: BGB combination; at 5 µM; stronger effect = higher value
measurement kind: inhibition (%)
Please state the figure in %; there is no need to write the unit.

Some entries whose results are on file:
CN1CCN(c2c(F)cc3c(=O)c(C(=O)O)cn4c3c2OCN4C)CC1: -9.95
O=c1[nH]c(=O)n([C@H]2C[C@H](O)[C@@H](CO)O2)cc1Br: -22.5
N=c1ccn2c(n1)O[C@H]1[C@H](O)[C@@H](CO)O[C@H]12: 33.7
O=c1c(O)c(-c2ccc(O)c(O)c2)oc2cc(O)ccc12: -2.65
Nc1ccc2cc3ccc(N)cc3nc2c1: 92.2
O=c1[nH]c(=O)n([C@H]2C[C@H](O)[C@@H](CO)O2)cc1C(F)(F)F: 1.19

[Q] GET /values?readout=inhibition&item= `CN1C[C@@H]2C[C@H]1CN2c1cc2c(cc1F)c(=O)c(C(=O)O)cn2C1CC1`
[A] -5.03

[Q] GET /values?readout=inhibition&item= `CCOC(=O)Nc1ccc(NCc2ccc(F)cc2)nc1N`
[A] -17.6

###

Experiment: SU-DIPG-XXV glioma cell viability, MIPE5.0 library, qHTS (AID 1347068);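 on IC50: cells exposed to compound for 48 hours before viability readout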
Results filed as inconclusive are left out. Active and inactive are the calls of the source. No cut-off is given here; in the data, nearly all actives have IC50 up to about 30 µM.
measurement kind: IC50

Some entries whose results are on file:
CC(C)c1c(C(=O)Nc2ccccc2)c(-c2ccccc2)c(-c2ccc(F)cc2)n1CC[C@@H](O)C[C@@H](O)CC(=O)O: inactive
COc1cc2c(cc1OC)[C@@H]1C(=O)c3ccc4c(c3O[C@@H]1CO2)C=CC(C)(C)O4: inactive
CC(C(=O)O)c1ccc(-c2ccccc2)c(F)c1 (stereo not given): inactive
COc1cc([C@@H]2c3cc4c(cc3[C@H](O)[C@H]3COC(=O)[C@@H]23)OCO4)cc(OC)c1OC: 934 nM (active)

Moving on to the next molecule.
[Q] GET /values?readout=IC50&item= `CCC(=O)NCC[C@@H]1CCc2ccc3c(c21)CCO3`
[A] inactive

###

Target: 6-phosphogluconate dehydrogenase, decarboxylating (Homo sapiens) (UniProt P52209)
Sequence (P52209 whole entry, looked up): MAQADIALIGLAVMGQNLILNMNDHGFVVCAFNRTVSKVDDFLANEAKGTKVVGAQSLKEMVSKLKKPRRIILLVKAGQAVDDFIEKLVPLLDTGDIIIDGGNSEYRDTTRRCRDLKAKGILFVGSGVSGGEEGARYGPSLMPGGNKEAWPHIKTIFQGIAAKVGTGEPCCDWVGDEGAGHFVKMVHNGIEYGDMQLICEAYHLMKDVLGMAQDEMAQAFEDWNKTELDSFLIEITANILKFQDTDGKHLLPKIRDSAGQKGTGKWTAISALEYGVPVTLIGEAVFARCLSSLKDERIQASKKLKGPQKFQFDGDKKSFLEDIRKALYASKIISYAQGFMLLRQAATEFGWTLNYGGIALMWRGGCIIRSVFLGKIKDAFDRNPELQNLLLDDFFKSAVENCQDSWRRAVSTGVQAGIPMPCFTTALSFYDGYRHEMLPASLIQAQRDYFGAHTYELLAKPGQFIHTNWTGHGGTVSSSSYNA
Assay: 6PGD enzyme inhibitors, primary screen, biochemical, human, recombinant enzyme, NADPH absorbance (AID 1159550)
Conditions: recombinant 6PGD, NADPH absorbance 341 nm; at 10 µM; stronger effect = higher value
Quick reference for inhibition among some compounds
Please state the figure in %; there is no need to write the unit.

Some entries whose results are on file:
C=CCCCCCCCCCCCC(O)CC(O)CO (stereo unspecified) (tested in a mixture with another compound): -8.17
O=c1cc(-c2ccccc2)oc2cc(O)c(O)c(O)c12: 4.11
COc1ccc(-c2cc(=O)c3c(O)cc(O[C@@H]4O[C@H](CO[C@@H]5O[C@@H](C)[C@H](O)[C@@H](O)[C@H]5O)[C@@H](O)[C@H](O)[C@H]4O)cc3o2)cc1O: 7.55
COc1cc(O)cc(OC)c1OC: -0.756

[Q] GET /values?readout=inhibition&item= `c1coc(CNc2ncnc3nc[nH]c23)c1`
[A] 6.86

[Q] GET /values?readout=inhibition&item= `COc1cc(C)c(C(=O)Oc2cc(C)c(C(=O)O)c(O)c2C)c(O)c1C=O`
[A] 2.14

[Q] GET /values?readout=inhibition&item= `COc1ccc(-c2coc3cc(O)ccc3c2=O)c(O)c1O`
[A] 9.58

[Q] GET /values?readout=inhibition&item= CC(=O)OC(C)(CCC=C(C)C)C1CC=C(C)CC1 (stereo unspecified)
[A] 0.603

[Q] GET /values?readout=inhibition&item= `O=C1C=CC(=C(c2ccc(O)cc2)c2ccc(O)cc2)C=C1`
[A] 7.03

[Q] GET /values?readout=inhibition&item= CC1(C)CC2C1CC[C@]1(CBr)CCC3C(CC(=O)O)C(=O)O[C@@]32C1 (stereo partly specified)
[A] 14.7

[Q] GET /values?readout=inhibition&item= `CN(C)CC/C=C1/c2ccccc2Sc2ccc(Cl)cc21`
[A] -16.6

[Q] GET /values?readout=inhibition&item= `CN(C)CCN(Cc1cccs1)c1ccccn1`
[A] 15.9

###

Quick reference for viability among some molecules
Assay: liver-stage malaria parasite growth inhibition, primary screen, cell-based, HepG2, luciferase luminescence, HepG2 viability (AID 624349);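 further: 100% = mean of DMSO negative control wells on the same plate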
Settings: P. berghei liver stage in HepG2, luciferase luminescence, concentration not given here; measured here: HepG2 viability without parasites
Report the figure along with its unit, number first.

CC(=O)Nc1c(I)c(NC(C)=O)c(I)c(C(=O)O)c1I: 109%
C[N+](C)(C)CCOC(=O)CCC(=O)OCC[N+](C)(C)C: 74.5%
CCCCCCCCCc1ccc(OCCOCCOCCOCCOCCOCCOCCOCCOCCO)cc1: 85%
NC(=O)c1ccc[n+]([C@@H]2O[C@H](COP(=O)([O-])OP(=O)(O)OC[C@H]3O[C@@H](n4cnc5c(N)ncnc54)[C@H](OP(=O)(O)O)[C@@H]3O)[C@@H](O)[C@H]2O)c1: 83.2%
CC(=O)OCC(=O)[C@@]1(O)CC[C@H]2[C@@H]3C[C@H](C)C4=CC(=O)C=C[C@]4(C)[C@H]3[C@@H](O)C[C@@]21C: 94.7%
CN1C(=O)CC(c2ccccc2)C1=O (centres undefined): 73.1%
COc1cc(C(=O)N2CCOCC2)cc(OC)c1OC: 105%
O=C(CCc1ccc(O)cc1)c1c(O)cc(O)cc1O[C@@H]1O[C@H](CO)[C@@H](O)[C@H](O)[C@H]1O: 69.5%

[Q] GET /values?readout=viability&item= CC(C(=O)O)c1ccc2c(c1)Cc1cccnc1O2 (centres undefined)
[A] 105%

[Q] GET /values?readout=viability&item= `O=C(Nc1cc(C(F)(F)F)cc(C(F)(F)F)c1)c1cc(Cl)ccc1O`
[A] 51.5%

[Q] GET /values?readout=viability&item= `CCOc1ccc2c(c1)C(C)=CC(C)(C)N2`
[A] 95.9%

[Q] GET /values?readout=viability&item= `COc1ccc2c(c1)C(=O)N(CCc1ccc(S(=O)(=O)NC(=O)NC3CCCCC3)cc1)C(=O)C2(C)C`
[A] 79.4%

[Q] GET /values?readout=viability&item= `CCCCCCCCCCCCCCCC[N+](C)(C)CCN(Cc1ccc(OC)cc1)c1ncccn1`
[A] 77.4%

[Q] GET /values?readout=viability&item= `C[C@@H]1C(=O)O[C@H]2C[C@@]34[C@H]5C[C@@H](C(C)(C)C)[C@]36[C@@H](OC(=O)[C@@H]6O)O[C@@]4(C(=O)O5)[C@]21O`
[A] 110%

[Q] GET /values?readout=viability&item= `CC1=C(C)C(=O)C(CCCCC#CCCCC#CCO)=C(C)C1=O`
[A] 216%

[Q] GET /values?readout=viability&item= `O=C(Oc1ccccc1C(=O)O)c1ccccc1O`
[A] 139%

###

Quick reference for normalised cell number among some molecules
Test: differential killing of epithelial or mesenchymal cells, primary screen, imaging, PC-3E GFP, TEM4-18 mCherry, co-culture (AID 1345086);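 further: cells exposed to compound for 72 h before imaging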
Conditions: imaging cell counts, measured here: mesenchymal TEM4-18 mCherry cell survival, at 1 µM
Reply with the value as a number alone.

Some entries whose results are on file:
CCN1C(=O)NC(c2ccccc2)C1=O (configuration not stated): 1
COc1ccc(C(=O)O)c(O)c1OC: 1.12
O=S(=O)(c1cccc2cnccc12)N1CCCNCC1: 0.95
CON: 1.18
CCN(CC)CCOc1ccc2c(c1)C(=O)c1cc(OCCN(CC)CC)ccc1-2: 0.93

[Q] GET /values?readout=normalised cell number&item= `O=[N+]([O-])c1cccc2cn[nH]c12`
[A] 1.13

[Q] GET /values?readout=normalised cell number&item= `CC[C@@H](CO)NCCN[C@@H](CC)CO`
[A] 0.97

###

Test: stimulators of nuclear beta-catenin in C2C12, primary screen, imaging, WNT3A-conditioned medium, mouse C2C12, NPC library (AID 1117326)
Details: stimulation, at 2 µM, stronger effect = higher value
Quick reference for nuclear beta-catenin stimulation among some compounds
Please state the figure in %; there is no need to write the unit.

Nc1cc(=O)[nH]c(N)n1: 1.3
CCN(CC)CCNC(=O)c1c(C)[nH]c(/C=C2\C(=O)Nc3ccc(F)cc32)c1C: -2
C[N+](C)(C)CC(O)CC(=O)[O-] (stereo unspecified): 2.6
CCOc1ccc(NC(=O)CC(C)O)cc1 (stereo unspecified): 0.2
COC(=O)C1=C(C#N)NC(C)=C(C(=O)OC(C)C)C1c1cccc([N+](=O)[O-])c1 (stereo unspecified): 2.3
CC(C)C(=O)c1c(C(C)C)nn2ccccc12: 0.4
CN1CC[C@H](c2c(O)cc(O)c3c(=O)cc(-c4ccccc4Cl)oc23)[C@H](O)C1: 76.1
O=C(O)c1cc(-c2ccccc2)nc2ccccc12: 0.6
CCCCN1C[C@H](O)[C@@H](O)[C@H](O)[C@H]1CO: 0.2
CC(=O)Oc1ccc2c(c1)CC[C@@H]1[C@@H]2CC[C@]2(C)[C@@H](O)CC[C@@H]12: 4.6

Moving on to the next compound.
[Q] GET /values?readout=nuclear beta-catenin stimulation&item= O=C(NCC(O)CO)c1c(I)c(C(=O)NCC(O)CO)c(I)c(N(CCO)C(=O)CO)c1I (stereo unspecified)
[A] 1.1
